- experiment: Hum MS stability (human microsomal stability half-life)
- test_parameters: human microsomes

{"columns": ["molecule", "half-life"],
 "data": [
  ["CC(=O)N1CC(N2CCC(c3nn(C)c4ccc(-c5nc6cc(C)c([C@H](OC(C)(C)C)C(=O)O)c(-c7ccc(Cl)cc7)c6s5)nc34)CC2)C1", "0.6 h"],
  ["COC1(C)CN(c2nn(C)c3ccc(-c4nc5cc(C)c([C@H](OC(C)(C)C)C(=O)O)c(-c6ccc(Cl)cc6)c5s4)cc23)C1", "4.15 h"],
  ["Cc1cc2nc(-c3ccc4c(c3)c(C3CCN(C5COC5)C3)nn4C)sc2c(-c2ccc(Cl)cc2)c1[C@H](OC(C)(C)C)C(=O)O (some centres unmarked)", "5.87 h"],
  ["COCCN(C)C1CN(c2nn(C)c3ccc(-c4nc5cc(C)c([C@H](OC(C)(C)C)C(=O)O)c(-c6ccc(Cl)cc6)c5s4)cc23)C1", "2.15 h"],
  ["COCCN1CCCC(c2nn(C)c3ccc(-c4nc5cc(C)c([C@H](OC(C)(C)C)C(=O)O)c(-c6ccc(Cl)cc6)c5s4)cc23)C1 (some centres unmarked)", "2.17 h"],
  ["COCCN1C(=O)N(c2nn(C)c3ccc(-c4nc5cc(C)c([C@H](OC(C)(C)C)C(=O)O)c(-c6ccc(Cl)cc6)c5s4)cc23)CC1(C)C", "1.6 h"],
  ["Cc1cc2nc(-c3ccc4c(c3)c(C3CCOC3)nn4C)sc2c(-c2ccc(Cl)cc2)c1[C@H](OC(C)(C)C)C(=O)O (some centres unmarked)", "3.72 h"],
  ["Cc1cc2nc(-c3ccc4c(c3)c(C3CCN(C5CCOC5)CC3)nn4C)sc2c(-c2ccc(Cl)cc2)c1[C@H](OC(C)(C)C)C(=O)O (stereo in doubt) [Compound 26]", "4.68 h"],
  ["[2H]C([2H])([2H])C(O[C@H](C(=O)O)c1c(C)cc2nc(-c3ccc4c(c3)c(C3CCN(C5COC5)CC3)nn4C)sc2c1-c1ccc(Cl)cc1)(C([2H])([2H])[2H])C([2H])([2H])[2H]", "3.3 h"],
  ["Cc1cc2nc(-c3cnc4c(c3)c(C3CCN(C5COC5)CC3)cn4C)sc2c(-c2ccc(Cl)cc2)c1[C@H](OC(C)(C)C)C(=O)O", "4.7 h"],
  ["COCCN1CCC(c2nn(C)c3ccc(-c4nc5cc(C)c([C@H](OC(C)(C)C)C(=O)O)c(-c6ccc(Cl)cc6)c5s4)cc23)CC1", "4.38 h"],
  ["CC(=O)N1CCC(c2nn(C)c3ccc(-c4nc5cc(C)c([C@H](OC(C)(C)C)C(=O)O)c(-c6ccc(Cl)cc6)c5s4)cc23)C1 (some centres unmarked)", "3.32 h"],
  ["COC1CN(c2nn(C)c3ccc(-c4nc5cc(C)c([C@H](OC(C)(C)C)C(=O)O)c(-c6ccc(Cl)cc6)c5s4)cc23)C1", "1.82 h"],
  ["Cc1cc2nc(-c3ccc4c(c3)c(C3CCN(C5CC(O)C5)CC3)nn4C)sc2c(-c2ccc(Cl)cc2)c1[C@H](OC(C)(C)C)C(=O)O (some centres unmarked)", "4.95 h"],
  ["Cc1cc2nc(-c3ccc4c(n3)c(C3CCN(C5COC5)CC3)nn4C)sc2c(-c2ccc(Cl)cc2)c1[C@H](OC(C)(C)C)C(=O)O", "5.95 h"],
  ["COCCN1CCC(c2nn(C)c3ccc(-c4nc5cc(C)c([C@H](OC(C)(C)C)C(=O)O)c(-c6ccc(Cl)cc6)c5s4)cc23)C1 (single isomer, unassigned)", "5.72 h"],
  ["Cc1cc2nc(-c3ccc4c(c3)c(C3CCN(C(=O)[C@H]5CCCO5)CC3)nn4C)sc2c(-c2ccc(Cl)cc2)c1[C@H](OC(C)(C)C)C(=O)O", "4.17 h"]
]}

====

- System: HIV-IIIb IN T174I DE
- experiment: Antiviral assay in MT4 cells, HIV-IIIb IN T174I DE virus (from dose escalation passaging)
- Assay type: cell-based, HIV-1
- test_parameters: Human immunodeficiency virus 1, IIIB, MT4, 120 h, read-out: T174I DE EC50, MT4 cells, HIV-IIIb IN T174I DE (dose escalation), 5 days, CellTiter-Glo
pEC50: −log10 of the molar value.
Values of pEC50 greater than or equal to 6 map to Fulfilled; values below map to Not fulfilled.

{"columns": ["test_smiles", "target_of_assay", "label"],
 "data": [
  ["[2H]C([2H])([2H])n1nc(C2CCN(C3CN(C(=O)OC)C3)CC2)c2nc(-c3nc4cc(C)c([C@H](OC(C)(C)C)C(=O)O)c(-c5ccc(Cl)cc5)c4s3)ccc21", "HIV-IIIb IN T174I DE", "Fulfilled"],
  ["Cc1cc2nc(-c3cnc4c(c3)c(N3CCN(C)CC3)cn4C)sc2c(-c2ccc(Cl)cc2)c1[C@H](OC(C)(C)C)C(=O)O", "HIV-IIIb IN T174I DE", "Not fulfilled"],
  ["CCn1nc(C2CCN(C3COC3)CC2)c2cc(-c3nc4cc(C)c([C@H](OC(C)(C)C)C(=O)O)c(-c5ccc(Cl)cc5)c4s3)ccc21", "HIV-IIIb IN T174I DE", "Fulfilled"],
  ["Cc1cc2nc(-c3ccc4c(c3)c(N3CC5CC(C3)O5)nn4C)sc2c(-c2ccc(Cl)cc2)c1[C@H](OC(C)(C)C)C(=O)O", "HIV-IIIb IN T174I DE", "Not fulfilled"],
  ["Cc1cc2nc(-c3ccc4c(c3)c(N3CCN(CCN5CCOCC5)C3=O)nn4C)sc2c(-c2ccc(Cl)cc2)c1[C@H](OC(C)(C)C)C(=O)O", "HIV-IIIb IN T174I DE", "Not fulfilled"],
  ["CO[C@@H]1CCN(c2nn(C)c3ccc(-c4nc5cc(C)c([C@H](OC(C)(C)C)C(=O)O)c(-c6ccc(Cl)cc6)c5s4)cc23)C1", "HIV-IIIb IN T174I DE", "Not fulfilled"]
]}

====

- Tested on: HIV-IIIb IN T174I BT
- experiment: Antiviral assay in MT4 cells, HIV-IIIb IN T174I BT virus (from viral breakthrough)
- Assay type: cell-based, HIV-1
- test_parameters: Human immunodeficiency virus 1, IIIB, MT4, 120 h, read-out: T174I BT EC50, MT4 cells, HIV-IIIb IN T174I BT (viral breakthrough), 5 days, CellTiter-Glo
pEC50: −log10 of the molar value.
Label true (1) for high-side pEC50 (at or above 6) and false (0) for low-side pEC50 (below it).

{"columns": ["compound", "label"],
 "data": [
  ["Cc1cc2nc(-c3ccc4c(c3)c(C3CN(C(C)(C)C)C3)nn4C)sc2c(-c2ccc(Cl)cc2)c1[C@H](OC1CC1)C(=O)O [Compound 60]", "true (1)"],
  ["Cc1cc2nc(-c3ccc4c(c3)c(N3CC5CCC(C3)O5)nn4C)sc2c(-c2ccc(Cl)cc2)c1[C@H](OC(C)(C)C)C(=O)O [Compound 141]", "false (0)"],
  ["Cc1cc2nc(-c3ccc4c(c3)c(C3=CCOCC3)nn4C)sc2c(-c2ccc(Cl)cc2)c1[C@H](OC(C)(C)C)C(=O)O [Compound 18]", "false (0)"],
  ["Cc1cc2nc(-c3cnc4c(c3)c(C3CCN(C5COC5)CC3)cn4C)sc2c(-c2ccc(Cl)cc2)c1[C@H](OC(C)(C)C)C(=O)O [Compound 17]", "true (1)"],
  ["Cc1cc2nc(-c3ccc4c(c3)c(C3=CCOC3)nn4C)sc2c(-c2ccc(Cl)cc2)c1[C@H](OC(C)(C)C)C(=O)O [Compound 51]", "false (0)"],
  ["Cc1cc2nc(-c3ccc4c(n3)c(C3CCN(C5CN(C(=O)OC(C)C)C5)CC3)nn4C)sc2c(-c2ccc(Cl)cc2)c1[C@H](OC(C)(C)C)C(=O)O [Compound 168]", "true (1)"],
  ["Cc1cc2nc(-c3ccc4c(c3)c(C3CCN(C5CS(=O)(=O)C5)CC3)nn4C)sc2c(-c2ccc(Cl)cc2)c1[C@H](OC(C)(C)C)C(=O)O [Compound 10]", "true (1)"],
  ["CC(=O)N1CC(N2CCC(c3nn(C(F)F)c4ccc(-c5nc6cc(C)c([C@H](OC(C)(C)C)C(=O)O)c(-c7ccc(Cl)cc7)c6s5)cc34)CC2)C1 [Compound 43]", "true (1)"],
  ["CCn1nc(C2CCN(C3CN(C(C)=O)C3)CC2)c2nc(-c3nc4cc(C)c([C@H](OC(C)(C)C)C(=O)O)c(-c5ccc(Cl)cc5)c4s3)ccc21 [Compound 181]", "true (1)"]
]}

====

Listing of entries alongside the reported EC50.
- System: HIV-IIIb (wildtype)
- experiment: Antiviral assay in MT4 cells, HIV-IIIb wildtype
- Type: cell-based, HIV-1
- test_parameters: Human immunodeficiency virus 1, IIIB, MT4, 120 h, read-out: WT EC50

{"columns": ["compound", "unit_spec", "EC50"],
 "data": [
  ["COC(=O)N1CC(N2CCC(c3nn(C)c4ccc(-c5nc6cc(C)c([C@H](OC(C)(C)C)C(=O)O)c(-c7ccc(Cl)cc7)c6s5)cc34)CC2)C1 [Compound 153]", "nM", 11],
  ["Cc1cc2nc(-c3ccc4c(n3)c(N3CCN(C5COC5)CC3)nn4C)sc2c(-c2ccc(Cl)cc2)c1[C@H](OC(C)(C)C)C(=O)O [Compound 15]", "nM", 4],
  ["Cc1cc2nc(-c3ccc4c(c3)c(N3CC(N(C)C)C3)nn4C)sc2c(-c2ccc(Cl)cc2)c1[C@H](OC(C)(C)C)C(=O)O [Compound 90]", "nM", 8]
]}
